List of inhibition in vivo at 200 mg/kg values.
system: Mus musculus; assay: Analgesic activity in Kunming Mus musculus (mouse) assessed as inhibition of acetic acid-induced writhing at 200 mg/kg, po administered 1 hr prior to acetic acid challenge measured for 15 min relative to untreated control; assay type: functional
ENDPOINT LABEL: inhibition in vivo at 200 mg/kg (%)

{"MOLECULE": "Cc1ccc(/C=C2\\CCCC(CN(C)c3ccccc3)C2=O)cc1 (centres undefined)", "VALUE MEASURED": 68.2}
{"MOLECULE": "CN(CC1CCC/C(=C\\c2ccccc2)C1=O)c1ccccc1 (centres undefined)", "VALUE MEASURED": 69.7}
{"MOLECULE": "Cc1cccc(N(C)CC2CCC/C(=C\\c3ccc(S(C)(=O)=O)cc3)C2=O)c1 (centres undefined)", "VALUE MEASURED": 72.8}
{"MOLECULE": "COc1ccc(C2(O)/C(=C/c3ccc(C)cc3)CCCC2CN(C)c2cccc(C)c2)cc1 (racemic)", "VALUE MEASURED": 74.2}
